Recorded values, source patent US7767659B2.

System: HeLa-APL
EXPERIMENT NOTES: Inhibition of cells growth by colorimetric assay (SRB)
EXPERIMENTAL CONTEXT: Homo sapiens, 48 h, read-out: HELA-APL TGI
MEASURED QUANTITY: IC (TGI) (µM)
Give your result in µM as a bare value.

Examples from the recorded data:
[
  {
    "COMPOUND": "C=CCN1[C@@H]2c3c(cc(C)c(OC)c3O)C[C@H]1[C@H](O)N1C2[C@@H]2SCC(NC(C)=O)C(=O)OC[C@H]1c1c3c(c(C)c(OC(C)=O)c12)OCO3 (stereo partly shown)",
    "TESTED ON": "HeLa-APL",
    "IC (TGI) (µM)": 0.0631
  },
  {
    "COMPOUND": "CCCCCCCC(=O)Oc1c(C)c2c(c3c1[C@H]1SC[C@]4(NCCc5cc(O)c(OC)cc54)C(=O)OC[C@@H]3N3C1[C@@H]1N[C@@H](Cc4cc(C)c(OC)c(O)c41)[C@@H]3O)OCO2 (stereo partly shown)",
    "TESTED ON": "HeLa-APL",
    "IC (TGI) (µM)": 0.143
  },
  {
    "COMPOUND": "COc1c(C)cc2c(c1O)[C@H]1N[C@@H](C2)[C@H](O)N2C1[C@@H]1SCC(=O)C(=O)OC[C@H]2c2c3c(c(C)c(OC(C)=O)c21)OCO3 (stereo partly shown)",
    "TESTED ON": "HeLa-APL",
    "IC (TGI) (µM)": 0.0732
  },
  {
    "COMPOUND": "C=CCN1[C@@H]2c3c(cc(C)c(OC)c3O)C[C@H]1[C@H](C#N)N1C2[C@@H]2SC[C@]3(NCCc4c3[nH]c3ccc(C)cc43)C(=O)OC[C@H]1c1c3c(c(C)c(OC(C)=O)c12)OCO3 (stereo partly shown)",
    "TESTED ON": "HeLa-APL",
    "IC (TGI) (µM)": 0.19
  },
  {
    "COMPOUND": "COc1c(C)cc2c(c1OC(=O)/C=C/c1ccccc1)[C@H]1N[C@@H](C2)[C@H](O)N2C1[C@@H]1SCC(NC(=O)C(F)(F)F)C(=O)OC[C@H]2c2c3c(c(C)c(OC(C)=O)c21)OCO3 (stereo partly shown)",
    "TESTED ON": "HeLa-APL",
    "IC (TGI) (µM)": 0.344
  },
  {
    "COMPOUND": "COc1c(C)cc2c(c1O)[C@H]1N[C@@H](C2)[C@H](C#N)N2C1[C@@H]1SC[C@]3(NCCc4c3[nH]c3ccccc43)C(=O)OC[C@H]2c2c3c(c(C)c(OC(C)=O)c21)OCO3 (stereo partly shown)",
    "TESTED ON": "HeLa-APL",
    "IC (TGI) (µM)": 0.00769
  },
  {
    "COMPOUND": "COC1=C(C)C(=O)C2=C(C1=O)[C@@H]1C3[C@@H]4SC[C@]5(NCCc6c5[nH]c5ccccc65)C(=O)OC[C@@H](c5c6c(c(C)c(OC(C)=O)c54)OCO6)N3[C@@H](O)[C@H](C2)N1C (stereo partly shown)",
    "TESTED ON": "HeLa-APL",
    "IC (TGI) (µM)": 0.0784
  },
  {
    "COMPOUND": "COc1ccc2[nH]c3c(c2c1)CCN[C@]31CS[C@@H]2c3c(OC(C)=O)c(C)c4c(c3[C@H](COC1=O)N1C2[C@@H]2N[C@@H](Cc3cc(C)c(OC)c(O)c32)[C@@H]1O)OCO4 (stereo partly shown)",
    "TESTED ON": "HeLa-APL",
    "IC (TGI) (µM)": 0.0048
  }
]

Indicate its recorded IC (TGI); the compound in question is COc1cc2c(cc1O)CCN[C@]21C[S+]([O-])[C@@H]2c3c(OC(C)=O)c(C)c4c(c3[C@H](COC1=O)N1C2C2c3c(cc(C)c(OC)c3O)C[C@@H]([C@@H]1O)N2C)OCO4 (stereo partly shown) [Et-759B] 0.102

Indicate its recorded IC (TGI); the compound in question is COc1c(C)cc2c(c1O)[C@H]1N[C@@H](C2)[C@H](O)N2C1[C@@H]1SC[C@]3(NCCc4c3[nH]c3ccc(O)cc43)C(=O)OC[C@H]2c2c3c(c(C)c(OC(C)=O)c21)OCO3 (stereo partly shown) 0.0041

* * *

Test system: DU-145
EXPERIMENT NOTES: Inhibition of cells growth by colorimetric assay (SRB)
EXPERIMENTAL CONTEXT: Homo sapiens, DU-145, 48 h, read-out: TGI DU145
MEASURED QUANTITY: IC (TGI) (nM)
Give your result in nM as a bare value.

Examples from the recorded data:
[
  {
    "COMPOUND": "C=CCN1[C@@H]2c3c(cc(C)c(OC)c3O)C[C@H]1[C@H](C#N)N1C2[C@@H]2SC[C@H](NC(=O)c3cc4ccccc4oc3=O)C(=O)OC[C@H]1c1c3c(c(C)c(OC(C)=O)c12)OCO3 (stereo partly drawn)",
    "ENDPOINT VALUE": 1270
  },
  {
    "COMPOUND": "COc1c(C)cc2c(c1O)[C@H]1N[C@@H](C2)[C@H](C#N)N2C1[C@@H]1SCC(NC(C)=O)C(=O)OC[C@H]2c2c3c(c(C)c(OC(C)=O)c21)OCO3 (stereo partly drawn)",
    "ENDPOINT VALUE": 7.44
  }
]

--- query ---
Indicate its recorded IC (TGI); the compound in question is CCC(=O)NC1CS[C@@H]2c3c(OC(C)=O)c(C)c4c(c3[C@H](COC1=O)N1C2[C@@H]2N[C@@H](Cc3cc(C)c(OC)c(O)c32)[C@@H]1C#N)OCO4 (stereo partly drawn) 15.6

* * *

Test system: A-549
EXPERIMENT NOTES: cells
EXPERIMENTAL CONTEXT: Homo sapiens, A549, 48 h, read-out: TGI A549
Items are presented alongside their recorded log10 IC (TGI).
All values: base-10 log of IC (TGI) in µM.

Examples from the recorded data:
[
  {
    "COMPOUND": "C=CCOc1c(C)c2c(c3c1CC1[C@H]4c5c(cc(C)c(OC)c5O)C[C@@H]([C@H](C#N)N1[C@H]3CO)N4C)OCO2 (some centres unmarked) [compound 2]",
    "log10 IC (TGI)": 0.14
  },
  {
    "COMPOUND": "C=CCN1[C@@H]2c3c(cc(C)c(OC)c3O)C[C@H]1[C@H](C#N)N1C2[C@@H]2SC[C@H](NC(=O)c3cc4ccccc4oc3=O)C(=O)OC[C@H]1c1c3c(c(C)c(OC(C)=O)c12)OCO3 (some centres unmarked) [compound 28]",
    "log10 IC (TGI)": -0.79
  },
  {
    "COMPOUND": "CCCCCCCCCCCCCCCC(=O)NC1CS[C@@H]2c3c(OC(C)=O)c(C)c4c(c3[C@H](COC1=O)N1C2[C@@H]2N[C@@H](Cc3cc(C)c(OC)c(O)c32)[C@@H]1C#N)OCO4 (some centres unmarked) [compound 32]",
    "log10 IC (TGI)": 0.63
  },
  {
    "COMPOUND": "C=CCN1[C@@H]2c3c(cc(C)c(OC)c3O)C[C@H]1[C@H](C#N)N1C2[C@@H]2SCC(NC(=O)C(F)(F)F)C(=O)OC[C@H]1c1c3c(c(C)c(OC(C)=O)c12)OCO3 (some centres unmarked) [compound 25]",
    "log10 IC (TGI)": 0.54
  }
]

--- query ---
Indicate its recorded log10 IC (TGI); the compound in question is COCCOCOc1c(OC)c(C)cc2c1[C@H]1N[C@@H](C2)[C@H](C#N)N2C1Cc1c(O)c(C)c3c(c1[C@@H]2CO[Si](c1ccccc1)(c1ccccc1)C(C)(C)C)OCO3 (some centres unmarked) [compound 6] 1.10

* * *

Test system: PANC-1
EXPERIMENT NOTES: Inhibition of cells growth by colorimetric assay (SRB)
EXPERIMENTAL CONTEXT: Homo sapiens, PANC-1, 48 h, read-out: PANC-1 TGI
MEASURED QUANTITY: IC (TGI) (nM)
Give your result in nM as a bare value.

Examples from the recorded data:
[
  {
    "MOLECULE": "COc1c(C)cc2c(c1O)[C@H]1N[C@@H](C2)[C@H](O)N2C1[C@@H]1SCC(=O)C(=O)OC[C@H]2c2c3c(c(C)c(OC(C)=O)c21)OCO3 (stereo partly drawn) [compound 43]",
    "TESTED ON": "PANC-1",
    "UNIT": "nM",
    "ENDPOINT VALUE": 82.7
  },
  {
    "MOLECULE": "COc1c(C)cc2c(c1O)[C@H]1N[C@@H](C2)[C@H](C#N)N2C1[C@@H]1SC[C@]3(NCCc4c3[nH]c3ccc(O)cc43)C(=O)OC[C@H]2c2c3c(c(C)c(OC(C)=O)c21)OCO3 (stereo partly drawn) [compound 61]",
    "TESTED ON": "PANC-1",
    "UNIT": "nM",
    "ENDPOINT VALUE": 15.4
  },
  {
    "MOLECULE": "COc1cc2c(cc1O)CCN[C@]21CS[C@@H]2c3c(OC(C)=O)c(C)c4c(c3[C@H](CNC1=O)N1C2[C@H]2c3c(cc(C)c(OC)c3O)C[C@@H]([C@@H]1C#N)N2C)OCO4 (stereo partly drawn) [compound 76]",
    "TESTED ON": "PANC-1",
    "UNIT": "nM",
    "ENDPOINT VALUE": 4970
  }
]

--- query ---
Indicate its recorded IC (TGI); the molecule in question is CCCCCCCCCCCCCCCC(=O)NC1CS[C@@H]2c3c(OC(C)=O)c(C)c4c(c3[C@H](COC1=O)N1C2[C@@H]2N[C@@H](Cc3cc(C)c(OC)c(O)c32)[C@@H]1O)OCO4 (stereo partly drawn) [compound 38] 1380
